# System: pERK in ASPC1 cells
# Assay Remarks: Inhibition of KRas phosphorylation of ERK (Cisbio HTRF pERK assay)
# Run Parameters: Homo sapiens, ASPC1, read-out: Inhibition (HTRF IC50) of KRas-mediated Phosphorylation of ERK, AsPC-1
Property: IC50 (nM)

[1] O=C1NC(=O)C2CN(c3nc(OC[C@@]45CCCN4C[C@H](F)C5)nc4c(F)c(-c5cc(O)cc6ccc(F)c(Cl)c56)ncc34)CC12 (stereo partly drawn)
[2] CCc1c(F)ccc2cc(O)cc(-c3ncc4c(N5CC(c6ccncc6)C5)nc(OC[C@@]56CCCN5C[C@H](F)C6)nc4c3F)c12
[3] C#Cc1c(F)ccc2cc(O)cc(-c3ncc4c(N5CCCC6(CC(=O)N6)C5)nc(OC[C@@]56CCCN5C[C@H](F)C6)nc4c3F)c12 (stereo partly drawn)
Ask | Rank the listed molecules according to IC50, from the largest value downward. Answer with the labels in sequence, matching the requested order.
Reply | 1, 2, 3

----------
# Test system: pERK in HCT116 cells
# Assay Remarks: Inhibition of KRas phosphorylation of ERK (Cisbio HTRF pERK assay)
# Run Parameters: Homo sapiens, HCT-116, read-out: Inhibition (HTRF IC50) of KRas-mediated Phosphorylation of ERK, HCT116
pIC50: −log10 of the molar value.
Property: pIC50

CCc1c(F)ccc2cc(O)cc(-c3ncc4c(N5C[C@H](O)CC[C@@H](O)C5)nc(OC[C@@]56CCCN5C[C@H](F)C6)nc4c3F)c12 [Example 490] : 6.43
CCc1c(F)ccc2cc(O)cc(-c3ncc4c(N5CCCc6nn(C(=O)N(C)C)cc6C5)nc(OC[C@@]56CCCN5C[C@H](F)C6)nc4c3F)c12 [Example 353] : 6.40
CCc1c(F)ccc2cc(O)cc(-c3ncc4c(N5CCCC6(CNC6=O)C5)nc(OC[C@@]56CCCN5C[C@H](F)C6)nc4c3F)c12 (stereo partly drawn) [Example 146] : 6.22
CCc1c(F)ccc2cc(O)cc(-c3ncc4c(N5CCCC6(CCC(O)C6)C5)nc(OC[C@@]56CCCN5C[C@H](F)C6)nc4c3F)c12 (stereo partly drawn) [Example 510] : 6.02
O=C1NC[C@]2(CCCN(c3nc(OC[C@@]45CCCN4C[C@H](F)C5)nc4c(F)c(-c5cc(O)cc6ccc(F)c(Cl)c56)ncc34)C2)N1 [Example 415] : 5.59

[a] O=C1NC(=O)[C@]2(CCCN(c3nc(OC[C@@]45CCCN4C[C@H](F)C5)nc4c(F)c(-c5cc(O)cc6ccc(F)c(Cl)c56)ncc34)C2)N1 [Example 413]
[b] CCc1c(F)ccc2cc(O)cc(-c3ncc4c(N5CCC[C@@](C)(O)C5)nc(OC[C@@]56CCCN5[C@@H](COC(=O)N(C)C)CC6)nc4c3F)c12 [Example 512]
Ask | Of the two listed items, which has the higher pIC50? First: a Second: b Write down the label of the entry you select.
Reply | b
(b: 6.54, a: 6.32)

----------
# Study System: KRas G12V (Homo sapiens, UniProt P01116, G12V);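 note: KRas binding measured by TR-FRET displacement at room temperature, IC50 fitted from percent of control values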
# Sequence (P01116 1-169 isoform P01116-2 G12V): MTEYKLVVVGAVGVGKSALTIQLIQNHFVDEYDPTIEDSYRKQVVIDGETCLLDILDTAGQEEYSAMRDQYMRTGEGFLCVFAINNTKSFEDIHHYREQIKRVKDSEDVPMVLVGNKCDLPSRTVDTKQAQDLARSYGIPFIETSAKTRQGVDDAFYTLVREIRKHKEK
# Assay Remarks: biochemical
Property: IC50 (µM)

[P] O=C(O)[C@H]1C[C@H](Nc2nc(OCC34CCCN3CCC4)nc3c(F)c(-c4cccc5cccc(F)c45)ncc23)C1 [Example 91]
[Q] O=S1(=O)CC(Nc2nc(OCC34CCCN3CCC4)nc3c(F)c(-c4cccc5cccc(F)c45)ncc23)C1 [Example 95]
Ask | # query: argmin of IC50 over P and Q Write down the label of the entry you select.
Reply | Q

[A] O=C1NCC2(CCN(c3nc(OCC45CCCN4CCC5)nc4c(F)c(-c5cccc6cccc(F)c56)ncc34)CC2)N1 [Example 217]
[B] NS(=O)(=O)OC1CCCN(c2nc(OCC34CCCN3CCC4)nc3c(F)c(-c4cccc5cccc(F)c45)ncc23)C1 (stereo not shown) [Example 248]
Ask | # query: argmin of IC50 over A and B Write down the label of the entry you select.
Reply | A
(A: 5.16 µM, B: 9.78 µM)
